These data points were gathered from patent US9809574B2.

Recorded log10 IC50 by entry
molecular target: Bcl-2 protein (histag-Bcl-2, UniProtKB P10415) (Homo sapiens (Human), UniProt P10415); experiment: Inhibition of Bcl-2 by the fluorescence polarisation technique; format: binding; settings: fluorescence polarisation test; incubation for 2 hours; read-out: IC50 (nM) Bcl-2 FP
Sequence (P10415 whole entry): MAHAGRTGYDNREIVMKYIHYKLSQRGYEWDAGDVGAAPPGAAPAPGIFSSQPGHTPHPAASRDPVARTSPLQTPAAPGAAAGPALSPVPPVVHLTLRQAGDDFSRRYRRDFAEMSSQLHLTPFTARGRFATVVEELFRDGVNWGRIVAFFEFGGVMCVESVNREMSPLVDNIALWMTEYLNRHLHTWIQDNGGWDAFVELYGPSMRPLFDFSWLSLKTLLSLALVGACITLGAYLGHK
Structures can show the parent of a compound that is named as a salt.
Annotation: log10 of IC50, nM basis.

Here are 4 molecules together with their reported answers.
[[record]]
molecule = "C[C@@H]1Cc2ccccc2CN1C(=O)c1cc2c(cc1-c1cc(C(=O)N(C)c3ccc(O)cc3)c3n1CCCC3)CCN(C(=O)NCc1ccccc1)C2"
observable = "log10 IC50"
val = 0.63

[[record]]
molecule = "COc1cccc(/C=C/C(=O)N2CCc3cc(-c4cc(C(=O)N(C)c5ccc(O)cc5)c(C)n4C)c(C(=O)N4Cc5ccccc5C[C@H]4CN4CCOCC4)cc3C2)c1"
observable = "log10 IC50"
val = 0.83

[[record]]
molecule = "C[C@@H]1Cc2ccccc2CN1C(=O)c1cc2c(cc1-c1cc(C(=O)N(C)c3ccc(O)cc3)c3n1CCCC3)CCN(C(=O)Cc1ccc(OCCN(C)C)cc1)C2"
observable = "log10 IC50"
val = 0.59

[[record]]
molecule = "Cc1c(C(=O)N(C)c2ccccc2)cc(-c2cc3c(cc2C(=O)N2Cc4ccccc4C[C@H]2CN2CCOCC2)CN(C(=O)Oc2ccc4cc[nH]c4c2)CC3)n1C"
observable = "log10 IC50"
val = 0.86


Fill in the blank: the reported log10 IC50 of `C[C@@H]1Cc2ccccc2CN1C(=O)c1cc2c(cc1-c1cc(C(=O)N(C)c3ccc(O)cc3)c3n1CCCC3)CN(CCc1ccccc1)C2` is ____. 1.32

# query: log10 IC50 of entry `C[C@@H]1Cc2ccccc2CN1C(=O)c1cc2c(cc1-c1cc(C(=O)N(C)c3ccc(O)cc3)c3n1CCCC3)CN(C(=O)Cc1ccc(OC(F)(F)F)cc1)C2` 1.48

For CN(C(=O)c1cc(-c2cc3c(cc2C(=O)N2Cc4ccccc4C[C@H]2CN2CCOCC2)CN(C(=O)c2ccccc2)C3)n2c1CCCC2)c1ccc(O)cc1 [Example 12, hydrochloride] , what is its reported log10 IC50? 1.63

// query log10 IC50 value for entry C[C@@H]1Cc2ccccc2CN1C(=O)c1cc2c(cc1-c1cc(C(=O)N(C)c3ccc(O)cc3)c3n1CCCC3)CCNC2 [Example 27, trifluoroacetic acid salt] 1.92
